- system-tested: HCV NS3/4A protease complex, BMS strain (UniProt P27958, C1454S/C1711G, species not given/STRAIN_BMS)
- protocol-details: Recombinant HCV NS3/4A protease complex FRET peptide assay (BMS strain)
- Format: biochemical, HCV genotype 1a
- measurement-setup: read-out: IC50 range; NS3/4A BMS strain
pIC50: −log10 of the molar value.
parameter: pIC50

Illustrative cases are given below, each with its answer.
C=C[C@@H]1CC1(NC(=O)[C@@H]1CC(Oc2nccc3cc(OC)ccc23)CN1C(=O)[C@@H](NC(=O)NC(C)(C)CC)C(C)(C)C)C(=O)NS(=O)(=O)C1CC1 (stereo partly drawn) :: > 7.00
C=C[C@@H]1C[C@]1(NC(=O)[C@@H]1C[C@@H](Oc2nccc3cc(OC)ccc23)CN1C(=O)[C@@H](NC(=O)NC(C)(C)C)[C@H](C)OC)C(=O)NS(=O)(=O)C1CC1 :: > 7.00
C=C[C@@H]1C[C@]1(NC(=O)[C@@H]1CC(Oc2nc(-c3ccccc3)cc3ccccc23)CN1C(=O)[C@@H](NC(=O)OC(C)(C)C)[C@H](C)O)C(=O)NS(=O)(=O)C1CC1 (stereo partly drawn) :: > 7.00
C=C[C@@H]1CC1(NC(=O)[C@@H]1CC(Oc2nccc3cc(OC)ccc23)CN1C(=O)[C@@H](NC(=O)OCc1ccccc1)C(C)(C)C)C(=O)NS(=O)(=O)C1CC1 (stereo partly drawn) :: > 7.00
C=C[C@@H]1C[C@]1(NC(=O)[C@@H]1C[C@@H](Oc2nccc3cc(OC)ccc23)CN1C(=O)[C@@H](NC(=O)OC(C)(C)C)[C@H](C)OCC)C(=O)NS(=O)(=O)C1CC1 :: > 7.00

Would you mind listing pIC50 for each of the following molecules?
1. C=CC1C[C@]1(NC(=O)[C@@H]1C[C@@H](COc2ccnc(-c3cccs3)c2)CN1C(=O)[C@@H](NC(=O)OC)C(C)(C)C)C(=O)NS(=O)(=O)C1CC1 (stereo partly drawn)
2. C=C[C@@H]1C[C@]1(NC(=O)[C@@H]1C[C@@H](Oc2nc(-c3ccccc3)cc3cc(OC)ccc23)CN1C(=O)[C@@H](NC(=O)OC(C)(C)C)C(C)(C)C)C(=O)NS(=O)(=O)C1CC1
3. C=CC1C[C@]1(NC(=O)[C@@H]1C[C@@H](Nc2nccc3ccccc23)CN1C(=O)[C@@H](NC(=O)OC(C)(C)C)C(C)(C)C)C(=O)NS(=O)(=O)C1CC1 (stereo partly drawn)
4. C=C[C@@H]1CC1(NC(=O)[C@@H]1CC(Oc2nccc3cc(OC)ccc23)CN1C(=O)[C@@H](NC(=O)OC1(C)CCCC1)C(C)(C)C)C(=O)NS(=O)(=O)C1CC1 (stereo partly drawn)
5. C=C[C@@H]1C[C@]1(NC(=O)[C@@H]1C[C@@H](Oc2nccc3cc(OC)ccc23)CN1C(=O)[C@@H](NC(=O)OCC(C)(C)C)C(C)(C)C)C(=O)NS(=O)(=O)C1CCC1

1: 6.00 to 7.00; 2: > 7.00; 3: > 7.00; 4: > 7.00; 5: > 7.00

Would you mind listing pIC50 for each of the following molecules?
1. C=C[C@@H]1C[C@]1(NC(=O)[C@@H]1C[C@@H](Oc2nccc3cc(OC)ccc23)CN1C(=O)[C@@H](NC(=O)OC1CCCC1)[C@H](C)OC)C(=O)NS(=O)(=O)C1CC1
2. C=CC1C[C@]1(NC(=O)[C@@H]1C[C@@H](COc2cncc(-c3ccsc3)c2)CN1C(=O)[C@@H](NC(=O)OC)C(C)(C)C)C(=O)NS(=O)(=O)C1CC1 (stereo partly drawn)

1. > 7.00
2. 6.00 to 7.00

Ref: patent US7915291B2
